- assay.explanation: Determination of HPLC retention time (RP-HPLC, polarity)
- Format: physicochemical
- study.conditions: RP-HPLC C18, MeCN/10 mM potassium phosphate buffer pH 7.4 gradient
Entries annotated with measured retention time
assay.endpoint: retention time (min)

>>> assay_value("COc1cc2cc(c1Cl)N(C)C(=O)C[C@H](OC(=O)[C@H](C)N(C)C(=O)CCCCCNC(=O)CCOCCOCCOCCOCCOCCOCCOCCOCCOCCOCCOCCOCCNC(=O)OCC1C3CCC#CCCC31)[C@]1(C)O[C@H]1[C@H](C)[C@@H]1C[C@@](O)(NC(=O)O1)[C@H](OC)/C=C/C=C(\\C)C2 (some centres unmarked) [Compound 31]")
10.1
>>> assay_value("O=C(NCCCCCOC(=O)NS(=O)(=O)NCc1ccccc1)OCC1C2CCC#CCCC21 (centres unmarked) [Compound 21]")
9.2
>>> assay_value("O=C(CCCCCCNC(=O)OCC1C2CCC#CCCC21)NCc1ccccc1 (centres unmarked) [Compound 19, BCN-Heptanoic Acid Benzylamide]")
11.4
>>> assay_value("O=C(CCCCCCNC(=O)OCC1C2CCC#CCCC21)NS(=O)(=O)NCc1ccccc1 (centres unmarked) [Compound 20]")
9.6
>>> assay_value("COc1cc2cc(c1Cl)N(C)C(=O)C[C@H](OC(=O)[C@H](C)N(C)C(=O)CCCCCNC(=O)OCc1ccc(NC(=O)[C@H](CCCNC(N)=O)NC(=O)[C@@H](NC(=O)OCCOCCNS(=O)(=O)NC(=O)OCC3C4CCC#CCCC43)C(C)C)cc1)[C@]1(C)O[C@H]1[C@H](C)[C@@H]1C[C@@](O)(NC(=O)O1)[C@H](OC)/C=C/C=C(\\C)C2 (some centres unmarked) [Compound 36]")
9.3
>>> assay_value("COc1cc2cc(c1Cl)N(C)C(=O)C[C@H](OC(=O)[C@H](C)N(C)C(=O)CCCCCNC(=O)CCOCCOCCOCCOCCOCCOCCOCCOCCOCCOCCOCCOCCOCCOCCOCCOCCOCCOCCOCCOCCOCCOCCOCCOCCNC(=O)OCC1C3CCC#CCCC31)[C@]1(C)O[C@H]1[C@H](C)[C@@H]1C[C@@](O)(NC(=O)O1)[C@H](OC)/C=C/C=C(\\C)C2 (some centres unmarked) [Compound 32]")
9.7
>>> assay_value("CN(C(=O)OCCCCCNC(=O)OCC1C2CCC#CCCC21)S(=O)(=O)NCc1ccccc1 (centres unmarked) [Compound 22]")
12.6
>>> assay_value("COc1cc2cc(c1Cl)N(C)C(=O)C[C@H](OC(=O)[C@H](C)N(C)C(=O)CCCCCNC(=O)CCOCCOCCOCCOCCNC(=O)OCC1C3CCC#CCCC31)[C@]1(C)O[C@H]1[C@H](C)[C@@H]1C[C@@](O)(NC(=O)O1)[C@H](OC)/C=C/C=C(\\C)C2 (some centres unmarked) [Compound 30]")
10.6
